- measurementTarget: PAF receptor (Oryctolagus cuniculus, UniProt G1TEI7)
- Construct: platelet membranes were prepared by centrifugation and washing; tissue Pel-Freez (Rogers, AR); host or cells: rabbit blood platelets (membranes prepared from citrated whole rabbit blood)
- Sequence (G1TEI7 1-342): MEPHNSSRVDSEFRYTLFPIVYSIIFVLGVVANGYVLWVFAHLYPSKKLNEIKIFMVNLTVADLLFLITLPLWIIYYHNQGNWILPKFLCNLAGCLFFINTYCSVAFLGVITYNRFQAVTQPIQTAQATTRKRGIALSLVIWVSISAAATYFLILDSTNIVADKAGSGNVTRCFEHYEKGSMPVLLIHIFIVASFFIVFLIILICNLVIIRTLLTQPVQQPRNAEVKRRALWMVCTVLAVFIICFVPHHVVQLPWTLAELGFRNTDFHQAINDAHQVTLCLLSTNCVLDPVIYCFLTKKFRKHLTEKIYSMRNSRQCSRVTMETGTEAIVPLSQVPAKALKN
- procedureText: PAF receptor binding assay: inhibition of specific [^3 H]C18 -PAF binding to rabbit platelet membranes
- measurementConditions: Table 1; rabbit platelet membranes, 0.6 nM [^3 H]C18 -PAF, 60 minutes at room temperature; Ki by Cheng and Prusoff; read-out: Ki
Listed here: items and their measured Ki.
Write the value in nM as a bare number.

Example entries and their recorded answers appear below.
Cc1nc2ccncc2n1Cc1ccc(C(=O)c2c[nH]c3cc(-c4ccc(F)cc4)ccc23)cc1 | 140
COC(=O)c1ccc(C(=O)OC)c2c(C(=O)c3ccc(Cn4c(C)nc5cnccc54)cc3)c[nH]c12 | 2.9
Cc1nc2ccncc2n1Cc1cccc(C(=O)c2c[nH]c3ccccc23)c1 | 280
Cc1nc2cnccc2n1Cc1ccc(C(=O)c2c[nH]c3ccccc23)cc1 | 150
Cc1nc2cnccc2n1Cc1ccc(C(=O)c2c[nH]c3cc(-c4ccc(F)cc4)ccc23)cc1 | 75

// field: Ki; key: `Cc1nc2cnccc2n1Cc1cccc(C(=O)c2c[nH]c3ccccc23)c1` ; value = 422

// field: Ki; key: `Cc1nc2cnccc2n1Cc1cccc(C(=O)c2c[nH]c3cc(-c4ccc(F)cc4)ccc23)c1` ; value = 86

// field: Ki; key: `Cc1nc2cnccc2n1CCCN(C)CC(=O)c1cn(C(=O)N(C)C)c2cc(-c3ccc(F)cc3)ccc12` ; value = 130

###

- measurementTarget: PAF receptor (Oryctolagus cuniculus, UniProt G1TEI7)
- Construct: platelet membranes were prepared by centrifugation and washing; tissue Pel-Freez (Rogers, AR); host or cells: rabbit blood platelets (membranes prepared from citrated whole rabbit blood)
- procedureText: PAF receptor binding assay: inhibition of specific [^3 H]C18 -PAF binding to rabbit platelet membranes
Listed here: items and their measured Ki.
Write the value in nM as a bare number.

Example entries and their recorded answers appear below.
CCOCCn1cc(C(=O)c2ccc(Cn3c(C)nc4cnccc43)cc2)c2c(Cl)cccc21 | 2.2
COC(=O)c1cccc2c1c(C(=O)c1ccc(Cn3c(C)nc4cnccc43)cc1)cn2S(=O)(=O)N(C)C | 4.7
Cc1cccc2c1c(C(=O)c1ccc(Cn3c(C)nc4cnccc43)cc1)cn2C(=O)N(C)C | 0.8

Next item in the queue.
// field: Ki; key: `Cc1nc2cnccc2n1Cc1ccc(C(=O)c2cn(C(=O)N(C)C)c3cc(-c4ccc(F)cc4)ccc23)cc1` ; value = 2.3

###

- measurementTarget: PAF receptor (Oryctolagus cuniculus, UniProt G1TEI7)
- Construct: platelet membranes were prepared by centrifugation and washing; tissue Pel-Freez (Rogers, AR); host or cells: rabbit blood platelets (membranes prepared from citrated whole rabbit blood)
- procedureText: PAF receptor binding assay: inhibition of specific [^3 H]C18 -PAF binding to rabbit platelet membranes
// boundary case: Ki equal to 0.04 µM maps to label 0; strictly smaller maps to label 1

Worked examples, 5 molecules total:
CC(C)c1nc2cnccc2n1Cc1ccc(C(=O)c2cn(C(=O)N(C)C)c3ccccc23)cc1 [Example 31] | label 0
COC(=O)c1cccc2c1c(C(=O)c1ccc(Cn3c(C(F)(F)F)nc4ccccc43)cc1)cn2C(=O)N(C)C [Example 162] | label 1
Cc1nc2cccnc2n1Cc1ccc(C(=O)c2cn(C(=O)N(C)C)c3ccccc23)cc1 [Example 27] | label 0
COC(=O)c1cccc2c1c(C(=O)c1ccc(C(C)n3c(C)nc4cnccc43)cc1)cn2C(=O)N(C)C (stereo not shown) [Example 156] | label 1
CCc1nc2cnccc2n1Cc1ccc(C(=O)c2cn(C(=O)N(C)C)c3ccccc23)cc1 [Example 33] | label 1

Exercise: For Cc1nc2cnccc2n1-c1ccc(C(=O)c2cn(C(=O)N(C)C)c3cc(-c4ccc(F)cc4)ccc23)cc1 [Example 10] , is the recorded Ki below the cut-off of 0.04 µM?
Key: label 0

###

Listed here: items and their measured inhibition at 1 µM.
- measurementTarget: PAF receptor (Oryctolagus cuniculus)
- Construct: platelet membranes were prepared by centrifugation and washing; tissue Pel-Freez (Rogers, AR); host or cells: rabbit blood platelets (membranes prepared from citrated whole rabbit blood)
- procedureText: PAF receptor binding assay: inhibition of specific [^3 H]C18 -PAF binding to rabbit platelet membranes
Write the value in % as a bare number.

Example entries and their recorded answers appear below.
Cc1nc2ccncc2n1CC(=O)c1cn(C(=O)N(C)C)c2cc(-c3ccc(F)cc3)ccc12 | 7
Cc1nc2cnccc2n1CC(=O)c1cn(C(=O)N(C)C)c2ccccc12 | 7
CN(C)C(=O)n1cc(C(=O)c2ccc(Cn3c(-c4ccccc4)nc4cnccc43)cc2)c2ccccc21 | 10

// field: inhibition at 1 µM; key: `Cc1nc2cnccc2n1CC(=O)c1cn(C(=O)N(C)C)c2cc(-c3ccc(F)cc3)ccc12` ; value = 6

###

- measurementTarget: PAF receptor (Oryctolagus cuniculus)
- Construct: platelet membranes were prepared by centrifugation and washing; tissue Pel-Freez (Rogers, AR); host or cells: rabbit blood platelets (membranes prepared from citrated whole rabbit blood)
- procedureText: PAF receptor binding assay: inhibition of specific [^3 H]C18 -PAF binding to rabbit platelet membranes
experimentalEndpoint: Ki (nM)
Write the value in nM as a bare number.

Example entries and their recorded answers appear below.
Cc1nc2cnccc2n1Cc1cccc(C(=O)c2cn(C(=O)N(C)C)c3cc(-c4ccc(F)cc4)ccc23)c1 [Example 12] | 140
C#Cc1cccc2c1c(C(=O)c1ccc(Cn3c(C)nc4cnccc43)cc1)cn2C(=O)N(C)C [Example 107] | 0.6
CN(C)C(=O)n1cc(C(=O)c2ccc(Cn3c(C(F)(F)F)nc4cnccc43)cc2)c2ccccc21 [Example 29] | 494

Next item in the queue.
// field: Ki; key: COC(=O)c1cccc2c1c(C(=O)c1ccc(Cn3c(C)nc4cnccc43)c(F)c1)cn2C(=O)N(C)C [Example 96] ; value = 7.7
